# Test system: Protein kinase A (Bos taurus)
Test readout: IC50 (nM)
Output spec: scalar in nM, unitless text.

stdin: For the compound shown here, COC1C(N(C)CCO)CC2OC1(C)n1c3ccccc3c3c4c(c5c6ccccc6n2c5c31)C(=O)NC4O (stereo not drawn) [Compound No. 1-β] , give the reported IC50.
stdout: 703
